System: U251 human glioblastoma cell line
test name: in vitro FM-HCR assay of MGMT activity (mPlum O^6MeG reporter plasmid)
Assay type: cell-based
test settings: MGMT activity (a.u.) in O^6BG divided by DMSO x 100; higher values indicate resistance
quantity measured: Relative MGMT activity (%)

Prompt: Give the measured Relative MGMT activity (%) for G160P: MGMT polypeptide with mutation G160P (protein) MDKDCEMKRTTLDSPLGKLELSGCEQGLHEIKLLGKGTSAADAVEVPAPAAVLGGPEPLMQCTAWLNAYFHQPEAIEEFPVPALHHPVFQQESFTRQVLWKLLKVVKFGEVISYQQLAALAGNPKAARAVGGAMRGNPVPILIPCHRVVCSSGAVGNYSPGLAVKEWLLAHEGHRLGKPGLGGSSGLAGAWLKGAGATSGSPPAGRN
Response: 47.9%

Prompt: Give the measured Relative MGMT activity (%) for A170S: MGMT polypeptide with mutation A170S (protein) MDKDCEMKRTTLDSPLGKLELSGCEQGLHEIKLLGKGTSAADAVEVPAPAAVLGGPEPLMQCTAWLNAYFHQPEAIEEFPVPALHHPVFQQESFTRQVLWKLLKVVKFGEVISYQQLAALAGNPKAARAVGGAMRGNPVPILIPCHRVVCSSGAVGNYSGGLAVKEWLLSHEGHRLGKPGLGGSSGLAGAWLKGAGATSGSPPAGRN
Response: 18.5%
